Test system: MS2 coat protein
protocol.description: apparent KD of MS2 coat protein; designed switch direction (-1 OFF switch, 1 ON switch): 1; higher = weaker reporter binding
condition.details: Eterna round: R95; input ligand: microRNA oligo, concentration not stated
Rule: apparent KD of MS2 coat protein of 0.07 µM or more gives label 1; anything lower gives label 0.

Worked examples, 10 sequences total:
INSERT INTO measurements (chain, qualitative_label) VALUES
  ('AGUCCAGCCAAAGCUGGACAAAAGCAUGUACAUGAGGAUCACCCAUGUUCAUGUACAAGCUUUUUGCUCGUCUUAAA [Mat - hsa-mir-208a - Mod of JL - 56] (puzzle: Sensor for hsa-mir-208a)', 'label 0'),
  ('UGGAUCUAGGCUUGCCUGGGUCCAUGUUGACAUGAGGAUCACCCAUGUGUAUUUUUUUUGCUUUUUGUUUGUCAACU [JL A Humble Attempt mod 11] (puzzle: Sensor for hsa-mir-208a)', 'label 0'),
  ('CGGGUACAUGAGGAUCACCCAUGUGGAAGAGAUGCAGGAUAUGUGGGAAAAGGGAAUGUAACAGAAGGGCAAGGAG [JR_SS!_Sub016] (puzzle: Same State 1)', 'label 0'),
  ('CUAAAACAUGAGGAUCACCCAUGUCAACAAAGUCGAGGAUAUGGGCAAAUAAAAUAAGAACCAGAAGGCGAAUAAA [salish99_SS1_r3_015] (puzzle: Same State 1)', 'label 1'),
  ('GAAGGAUGAGCGUAGGAUAUAGGAGGAGUGACAUGAGGAUCACCCAUGUGGUAGGAGGGAGGGUACUAGAAGGACGAGGAAGAGG [JR_SS2_Sub069] (puzzle: Same State 2)', 'label 1'),
  ('AGUCCAGCCUGAGCUGGACAAAAGCAUGUACAUGAGGAUCACCCAUGUCAUGUACAGGCUUUUUGCUCGUCUUAAAA [Zipper 46 - 8] (puzzle: Sensor for hsa-mir-208a)', 'label 0'),
  ('UUUGGGUGGCUGGAGGAUAUCCUGGUUGUUACAUGAGGAUCACCCAUGUGCCGCGCGGUGCGCUGGGAGAAGGCCGGCGGCCGUU (puzzle: Same State 2)', 'label 0'),
  ('UACAAUCUAUCUGAGGAUAUCAUGAUGAUAACAUGAGGAUCACCCAUGUGCAGGAAAACUGCAUAUGAGAAGGCAGAUAGAUUGU [salish99_ss2_r3_074] (puzzle: Same State 2)', 'label 1'),
  ('AGUCCUGCCUGAGCAGGACAAAAGCAUGUACAUGAGGAUCACCCAUGUCAUGUACAAGCUUUUUGCUCGUCUUAAUA [Mat - hsa-mir-208a - Mod of JL - D41] (puzzle: Sensor for hsa-mir-208a)', 'label 0'),
  ('GCGGAACAUGAGGAUCACCCAUGUAAAGGGUGUAAAGGAUAUUAUUGGGAGAAGGUAGGGUAAGAAGGUUGCUUGG [JR_SS1_Sub088] (puzzle: Same State 1)', 'label 1');

Q: Is apparent KD of MS2 coat protein for GUAGGACAUGAGGAUCACCCAUGUGGGAGGGAACGAGGAUAUGUGAUUAGCGAGGAGAGGACAGAAGGCGUGGUAG [JR_SS1_Sub024] (puzzle: Same State 1) at or above 0.07 µM?
A: label 0

Q: // inclusive: apparent KD of MS2 coat protein at least 0.07 µM? input: GGAGCCGGCACUGAGGAUAUUCGUAUUAAAACAUGAGGAUCACCCAUGUAGGCCAGAAGGCCUUGGGAGAAGGCAGGUCGACUCG [Diqureveri - 2] (puzzle: Same State 2)
A: label 0

Q: Determine whether this sequence has apparent KD of MS2 coat protein no lower than 0.07 µM: UUUUUUAAGACGAGACAAGCUUUUUGAUCACAUGAGGAUCACCCAUGUCUCGUCUUAUUUUUUUUUUUUUUUUUUUU [BA Sensor hsa-mir-208a - 2 - 3] (puzzle: Sensor for hsa-mir-208a)
A: label 0

Q: Record GCAGAACAUGAGGAUCACCCAUGUCUCAAAUAUUGAGGAUAUGGACACGGUAUAUCCGAACCAGAAGGCGAACUGC [SS1 Teenbexe 18] (puzzle: Same State 1) ; criterion: apparent KD of MS2 coat protein no lower than 0.07 µM. Met?
A: label 1

Q: Determine whether measured apparent KD of MS2 coat protein meets or exceeds 0.07 µM for GUACAACAUGAGGAUCACCCAUGUAUAUAUAUACGAGGAUAUGCAUGUACGAAAGUAUAUGCAGAAGGCGUUGUAC [Pin2Pin] (puzzle: Same State 1)
A: label 1

Q: Evaluate AGCUAUGGAAAACUAUAGCAAAAGUAUGUACAUGAGGAUCACCCAUGUCAUGUACAAGCUUUUUGCUCGUCUUAAAA [ak 6 mod of one Eli's designs.] (puzzle: Sensor for hsa-mir-208a) : apparent KD of MS2 coat protein at minimum 0.07 µM?
A: label 0

Q: Please check the record AAGUAACAUGAGGAUCACCCAUGUGAGGUGAGCGUAGGAUAUCGAGAAGGAAGGGUGGAGCGAGAAGGACGAGAGG [JR_SS1_Sub0100] (puzzle: Same State 1) and state if its apparent KD of MS2 coat protein is at or above 0.07 µM.
A: label 1
